- assay-comment: Cytotoxicity in vitro assay (CellTiter Glo, ATP level)
- Format: cell-based
- reported-conditions: African green monkey, Vero cells, Table 1, mean ± SD, read-out: Vero Cells Toxicity CC50
Mark Satisfied only when CC50 at 72 h stays strictly below 40 µM. Values equal to the cut-off are Not satisfied.

Use the examples below as a reference point.
# molecule, class
records = [
    ("COc1ccc(C(Sc2ccc(Cl)cc2)C2=C(O)C(=O)c3ccccc3C2=O)c(OC)c1 (centres unmarked) [Compound 1h]", "Satisfied"),
    ("COc1ccc(SC(C2=C(O)C(=O)c3ccccc3C2=O)c2ccc(OC)cc2)cc1 (centres unmarked) [Compound 2i]", "Not satisfied"),
    ("COc1ccc(C(Sc2ccc(C)cc2)C2=C(O)C(=O)c3ccccc3C2=O)cc1 (centres unmarked) [Compound 2d]", "Not satisfied"),
    ("COc1ccc(C(Sc2ccc3ccccc3c2)C2=C(O)C(=O)c3ccccc3C2=O)cc1 (centres unmarked) [Compound 2h]", "Not satisfied"),
    ("CCCSC(C1=C(O)C(=O)c2ccccc2C1=O)c1ccc(OC)cc1 (centres unmarked) [Compound 2g]", "Not satisfied"),
    ("O=C1C(O)=C(C(Sc2ccc(Cl)cc2)c2ccc(Cl)cc2)C(=O)c2ccccc21 (centres unmarked) [Compound 1a]", "Not satisfied"),
    ("COc1ccc(C(Sc2ccc(Cl)cc2)C2=C(O)C(=O)c3ccccc3C2=O)c(OC)c1OC (centres unmarked) [Compound 1i]", "Satisfied"),
    ("O=C(Cn1ccnc1[N+](=O)[O-])NCc1ccccc1 [Bz, benznidazole, reference compound]", "Not satisfied"),
    ("COc1ccc(C(Sc2cccc(C)c2)C2=C(O)C(=O)c3ccccc3C2=O)cc1 (centres unmarked) [Compound 2c]", "Not satisfied"),
    ("COc1ccc(C(Sc2ccc(SC)cc2)C2=C(O)C(=O)c3ccccc3C2=O)cc1 (centres unmarked) [Compound 2j]", "Not satisfied"),
]

Quick check: does COc1ccc(C(Sc2ccc(F)cc2)C2=C(O)C(=O)c3ccccc3C2=O)cc1 (centres unmarked) [Compound 2e] have CC50 at 72 h under 40 µM?
Not satisfied

Further, for COc1ccc(C(Sc2ccccc2C)C2=C(O)C(=O)c3ccccc3C2=O)cc1 (centres unmarked) [Compound 2b] ?
Not satisfied

Further, for O=C1C(O)=C(C(Sc2ccc(Cl)cc2)c2cn(-c3cc(Cl)cc(Cl)c3)nn2)C(=O)c2ccccc21 (centres unmarked) [Compound 1e] ?
Satisfied

Further, for COc1ccc(C(Sc2ccc(Cl)cc2)C2=C(O)C(=O)c3ccccc3C2=O)cc1 (centres unmarked) [Compound 1g] ?
Not satisfied

Further, for COc1ccc(C(Sc2ccccc2)C2=C(O)C(=O)c3ccccc3C2=O)cc1 (centres unmarked) [Compound 2a] ?
Not satisfied

----------
- assay-comment: Cytotoxicity in vitro assay (CellTiter Glo, ATP level)
- Type: cell-based
- reported-conditions: African green monkey, Vero cells, Table 2, read-out: CC50 Vero
# Lookup of reported CC50 at 72 h keyed by entry
Quick note: give the figure in µM, leave out the unit.

Examples with answers:
# compound, units, CC50 at 72 h
measured = [
    ("COc1ccc(C(Sc2ccc(C)cc2)C2=C(O)C(=O)c3ccccc3C2=O)cc1 (stereo not drawn) [Compound 2d]", "µM", 142),
    ("COc1ccc(C(Sc2cccc(C)c2)C2=C(O)C(=O)c3ccccc3C2=O)cc1 (stereo not drawn) [Compound 2c]", "µM", 48.9),
]

Let us examine a further case.
CC50 at 72 h lookup needed for CCCSC(C1=C(O)C(=O)c2ccccc2C1=O)c1ccc(OC)cc1 (stereo not drawn) [Compound 2g] , thanks.
47.7
